target-desc: T1, FCoV nucleocapsid protein N (Feline alphacoronavirus (FCoV/FIPV) …, UniProt P25909 1-377)
T1 sequence: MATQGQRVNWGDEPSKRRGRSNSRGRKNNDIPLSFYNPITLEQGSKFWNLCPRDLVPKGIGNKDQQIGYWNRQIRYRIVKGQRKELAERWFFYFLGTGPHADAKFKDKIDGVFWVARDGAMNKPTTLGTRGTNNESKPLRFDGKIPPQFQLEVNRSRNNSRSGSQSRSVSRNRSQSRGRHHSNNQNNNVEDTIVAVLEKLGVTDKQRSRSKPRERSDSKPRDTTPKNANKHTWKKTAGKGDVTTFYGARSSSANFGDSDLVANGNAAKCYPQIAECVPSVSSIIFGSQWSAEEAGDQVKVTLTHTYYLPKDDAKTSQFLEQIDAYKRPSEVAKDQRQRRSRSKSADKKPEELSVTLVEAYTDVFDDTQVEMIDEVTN
test-summary: filter binding; 160 mM NaCl; Filter binding: 40 mM Tris-HCl pH 7.4, 80 mM NaCl (160, 320 in series), 20 mM KCl, 1 mM DTT, room temperature, 30-45 min; BLI: 20 mM Tris-HCl pH 7.4, 80 mM NaCl, 20 mM KCl, 1 mM DTT, room temperature
test-context: protein: recombinant; tags: C-terminal His (pET-30a(+), NdeI/HindIII); chain copies: 2; label: [alpha-32P]GTP, internal
metric-name: pKd
Just the number, please; pKd means minus log10 of the concentration in mol/L.

Q. # pKd lookup, item ACUUUUAAAGUAAAGUGAGUGUAGCGUGGCUAUAAC (ssRNA) [vRNA 5' NCR (36 nt, radiolabeled)]
A. 7.51
